Catalogue of compounds with associated IC50
# system: Neuromedin-K receptor (Homo sapiens, UniProt P29371)
# Sequence (P29371 whole entry): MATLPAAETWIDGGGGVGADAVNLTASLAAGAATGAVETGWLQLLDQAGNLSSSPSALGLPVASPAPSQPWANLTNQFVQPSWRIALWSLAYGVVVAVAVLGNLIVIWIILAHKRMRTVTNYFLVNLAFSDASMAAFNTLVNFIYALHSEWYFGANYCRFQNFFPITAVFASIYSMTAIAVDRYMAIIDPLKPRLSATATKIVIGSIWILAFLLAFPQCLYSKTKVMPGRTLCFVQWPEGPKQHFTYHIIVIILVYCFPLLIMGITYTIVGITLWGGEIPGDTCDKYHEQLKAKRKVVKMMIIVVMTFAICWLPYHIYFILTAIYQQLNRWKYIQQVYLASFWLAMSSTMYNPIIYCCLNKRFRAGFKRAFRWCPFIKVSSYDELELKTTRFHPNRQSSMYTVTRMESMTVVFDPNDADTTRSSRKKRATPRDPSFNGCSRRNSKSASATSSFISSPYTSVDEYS
# measurement.notes: Displacement of [125I]neurokinin B from cloned human NK3 receptor expressed in CHO cells
# Format: cell-based

Data request: Find the recorded IC50 belonging to `COC(=O)N(NC(=O)c1c(OC)c(-c2ccccc2)nc2ccc(F)cc12)c1ccccc1` and report it.
Data returned: 38 nM (antagonist)

Data request: For `COC(=O)N(NC(=O)c1c(OC)c(-c2ccc(F)cc2)nc2ccccc12)c1ccccc1` then?
Data returned: 24 nM (antagonist)

Data request: Next up: `COC(=O)N(NC(=O)c1c(OC)c(-c2cccc(F)c2)nc2ccccc12)c1ccccc1`
Data returned: 22 nM (antagonist)

Data request: // query: `CCOC(=O)N(NC(=O)c1c(OC)c(-c2ccccc2)nc2ccccc12)c1ccccc1`
Data returned: 60 nM (antagonist)

Data request: And the next one, `COC(=O)N(NC(=O)c1c(OC)c(-c2ccccc2)nc2c(Br)cccc12)c1ccccc1` ?
Data returned: 430 nM (antagonist)
